polymerase ribozyme fitness (log ratio) values by entry
B1: TPR 5TU (parent)
chain: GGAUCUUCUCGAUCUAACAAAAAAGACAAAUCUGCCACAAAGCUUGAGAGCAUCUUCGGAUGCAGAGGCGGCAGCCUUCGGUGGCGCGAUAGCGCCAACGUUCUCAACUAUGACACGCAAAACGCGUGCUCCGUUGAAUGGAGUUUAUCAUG

- Variants of: B1
- procedure_summary: polymerase ribozyme fitness, log enrichment relative to wild type (log ratio); higher = more active; in vitro selection for triplet polymerase activity
This sample holds only a part of the variants without activity.

C54G C103G
≤ -4.2
U55G G86U
-0.476

# polymerase ribozyme fitness (log ratio) of A23C A98U A113U = -4.18

# polymerase ribozyme fitness (log ratio) of U44A U53A G86U C132U U135G = ≤ -4.2

# polymerase ribozyme fitness (log ratio) of U82C U135C U146C = -2.14

# polymerase ribozyme fitness (log ratio) of A26C A52U A89C = -3.85

# polymerase ribozyme fitness (log ratio) of A17U A40C G58C C76U G84U U144G = -0.372
